- System: LXFL 529
- assay comment: NCI tumour cell line growth inhibition, 48 h
The source made the active and inactive calls. Cut-off read from the data, not from the text of the source: active = GI50 up to about 1.1 µM and inactive = higher.
Catalogue of GI50 readings, one per entry.

>  <molecule>
CCC1C2C=CC(CC2)N1S(=O)(=O)c1ccc(C)cc1 (stereo not drawn)

>  <GI50>
17.3 µM (inactive)

$$$$

Form field: GI50 recorded for COC(=O)C1=CC2OC1(C)CCC2=O (stereo not drawn) with LXFL 529 (enter value)
> 100 µM (inactive)

Another molecule: CC1CCC[P+](Cc2ccccc2)(c2ccccc2)CC1 (stereo not drawn)
15.8 µM (inactive)

====

- System: NCI-H23
- assay comment: NCI tumour cell line growth inhibition, 48 h
Activity calls are given as the source filed them. Cut-off read from the data, not from the text of the source: active = GI50 up to about 1.1 µM and inactive = higher.
test readout: GI50

Some entries whose results are on file:
>  <molecule>
CCOC(=O)N(C)CCC1CC=CC(=O)C1c1cccc(OC)c1OC (configuration not stated)

>  <GI50>
14 µM (inactive)

$$$$
>  <molecule>
CCC1N2CCCCC2[C@@H]2c3[nH]c4ccccc4c3CCN12 (some centres not stated)

>  <GI50>
> 100 µM (inactive)

$$$$
>  <molecule>
CC1=C(C)CC2C(=O)N(c3cc(C(C)(C)C)ccc3C(C)(C)C)C(=O)C2C1 (configuration not stated)

>  <GI50>
94.4 µM (inactive)

$$$$
>  <molecule>
COC1=CC(=O)c2c(cc(COP(=O)(N(C)CCBr)N(C)CCBr)n2C)C1=O

>  <GI50>
< 0.0212 µM (active)

$$$$
>  <molecule>
COC(=O)c1ccc(/C=N/c2cc(C)nn2-c2ccccc2)cc1

>  <GI50>
48.5 µM (inactive)

$$$$

Form field: GI50 recorded for CNCC(SC)c1ccc(O)c(O)c1 (configuration not stated) with NCI-H23 (enter value)
31 µM (inactive)

Another molecule: CC(C)CCCC(C)[C@H]1CC[C@H]2[C@@H]3CC[C@H]4C[C@@H](CCC=C(c5cc(Cl)c(O)c(C(=O)O)c5)c5cc(Cl)c(O)c(C(=O)O)c5)CC[C@]4(C)[C@H]3CC[C@]12C (some centres not stated)
> 50 µM (inactive)

Another molecule: C=CCn1c(=O)ccn(/C(=C/C(=O)OCC)C(=O)OCC)c1=O
17.1 µM (inactive)

Another molecule: COC(=O)CCC(=O)CC(=O)C1=NS(=O)(=O)c2nc(S(N)(=O)=O)c(Cl)cc2N1
> 100 µM (inactive)

Another molecule: Cc1c(Cl)cccc1NC(=O)C(=O)C(C(=O)c1ccccc1-c1ccccc1)C1OC(=O)c2ccccc21 (configuration not stated)
14.5 µM (inactive)

Another molecule: CC(=O)OC1COC(N2C(=O)/C(=N\Nc3ccc([N+](=O)[O-])cc3)c3cc(Br)c([N+](=O)[O-])cc32)C(OC(C)=O)C1OC(C)=O (configuration not stated)
31.6 µM (inactive)

Another molecule: COc1cc(OC)c(OC)cc1/C=N/NC(=O)N/N=C/c1cc(OC)c(OC)cc1OC
> 100 µM (inactive)
